tested on: LOU-NH91; experiment: relative viability (nuclei count vs DMSO), 5 days (fraction); higher = more cells survive; details: first compound 0.01 µM
measure name: relative viability
Format: numeric value only, no unit, no commentary.

molecule	relative viability
Cc1cn(-c2cc(NC(=O)c3ccc(C)c(Nc4nccc(-c5cccnc5)n4)c3)cc(C(F)(F)F)c2)cn1 [Nilotinib] + COc1cccc2cc(-c3nc([C@H]4CC[C@H](C(=O)O)CC4)n4ncnc(N)c34)[nH]c12 [OSI-027] (partner 0.5 µM)	0.736
Cc1cn(-c2cc(NC(=O)c3ccc(C)c(Nc4nccc(-c5cccnc5)n4)c3)cc(C(F)(F)F)c2)cn1 [Nilotinib] + CC(=O)c1c(C)c2cnc(Nc3ccc(N4CCNCC4)cn3)nc2n(C2CCCC2)c1=O [Palbociclib] (partner 0.5 µM)	0.48
Cc1cn(-c2cc(NC(=O)c3ccc(C)c(Nc4nccc(-c5cccnc5)n4)c3)cc(C(F)(F)F)c2)cn1 [Nilotinib] + C[C@]1(O)C[C@@H](c2nc(-c3ccc4ccc(-c5ccccc5)nc4c3)c3c(N)nccn32)C1 [Linsitinib] (partner 1 µM)	0.976
Cc1cn(-c2cc(NC(=O)c3ccc(C)c(Nc4nccc(-c5cccnc5)n4)c3)cc(C(F)(F)F)c2)cn1 [Nilotinib] + CC1(C)CCC(c2ccc(Cl)cc2)=C(CN2CCN(c3ccc(C(=O)NS(=O)(=O)c4ccc(N[C@H](CCN5CCOCC5)CSc5ccccc5)c(S(=O)(=O)C(F)(F)F)c4)cc3)CC2)C1 [Navitoclax] (partner 0.5 µM)	0.846

stdin: Find the recorded relative viability belonging to Cc1cn(-c2cc(NC(=O)c3ccc(C)c(Nc4nccc(-c5cccnc5)n4)c3)cc(C(F)(F)F)c2)cn1 [Nilotinib] + C[C@@H](Oc1cc(-c2cnn(C3CCNCC3)c2)cnc1N)c1c(Cl)ccc(F)c1Cl [Crizotinib] (partner 1 µM) and report it.
stdout: 0.76

stdin: Please answer likewise for Cc1cn(-c2cc(NC(=O)c3ccc(C)c(Nc4nccc(-c5cccnc5)n4)c3)cc(C(F)(F)F)c2)cn1 [Nilotinib] + CC(C)C[C@H](NC(=O)[C@H](Cc1ccccc1)NC(=O)c1cnccn1)B(O)O [Bortezomib] (partner 0.002 µM)
stdout: 0.404

stdin: Next record, please: Cc1cn(-c2cc(NC(=O)c3ccc(C)c(Nc4nccc(-c5cccnc5)n4)c3)cc(C(F)(F)F)c2)cn1 [Nilotinib] + Cc1nc(Nc2ncc(C(=O)Nc3c(C)cccc3Cl)s2)cc(N2CCN(CCO)CC2)n1 [Dasatinib] (partner 0.075 µM)
stdout: 0.569
